Cited source: ChEMBL document CHEMBL1128551

tested system: C5a anaphylatoxin chemotactic receptor 1 (Homo sapiens, UniProt P21730)
Sequence (P21730 whole entry): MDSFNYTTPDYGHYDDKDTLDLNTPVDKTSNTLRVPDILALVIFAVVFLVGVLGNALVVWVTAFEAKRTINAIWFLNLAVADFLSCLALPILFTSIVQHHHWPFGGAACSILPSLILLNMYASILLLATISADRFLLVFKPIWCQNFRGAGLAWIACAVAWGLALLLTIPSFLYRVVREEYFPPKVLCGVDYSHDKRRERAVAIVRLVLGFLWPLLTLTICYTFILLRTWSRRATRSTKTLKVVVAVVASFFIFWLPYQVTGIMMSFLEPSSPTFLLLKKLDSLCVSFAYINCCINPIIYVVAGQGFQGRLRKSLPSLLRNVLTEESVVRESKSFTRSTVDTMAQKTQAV
assay summary: Release of beta-glucuronidase from human polymorphonuclear leukocytes(PMN)
For each entry below, report its pEC50 value.
Keep in mind that pEC50 stands for -log10 of concentration in molar terms.

C5a anaphylatoxin chemotactic receptor 1 (Homo sapiens, UniProt P21730) data for `CC(C)C[C@H](NC(=O)[C@@H]1CCCN1C(=O)[C@H](C)NC(=O)[C@H](CC(=O)O)NC(=O)[C@H](CCCCN)NC(=O)[C@H](Cc1ccccc1)NC(=O)[C@H](CO)NC(=O)[C@@H](N)Cc1ccc(O)cc1)C(=O)NCC(=O)N[C@@H](CCCNC(=N)N)C(=O)O` ; its pEC50: 3.68

C5a anaphylatoxin chemotactic receptor 1 (Homo sapiens, UniProt P21730) data for `CSCC[C@H](NC(=O)[C@H](CC(=O)O)NC(=O)[C@H](CCCCN)NC(=O)[C@H](Cc1ccccc1)NC(=O)[C@H](CO)NC(=O)[C@@H](N)Cc1ccc(O)cc1)C(=O)N1CCC[C@H]1C(=O)N[C@@H](C)C(=O)NCC(=O)N[C@@H](CCCNC(=N)N)C(=O)O` ; its pEC50: 3.17

C5a anaphylatoxin chemotactic receptor 1 (Homo sapiens, UniProt P21730) data for `CSCC[C@H](NC(=O)[C@H](CC(=O)O)NC(=O)[C@H](CCCCN)NC(=O)[C@H](Cc1ccccc1)NC(=O)[C@H](CO)NC(=O)[C@@H](N)Cc1ccc(O)cc1)C(=O)N1CCC[C@H]1C(=O)N[C@@H](CC(C)C)C(=O)NCC(=O)N[C@@H](CCCNC(=N)N)C(=O)O` ; its pEC50: 4.10

====

tested system: C5a anaphylatoxin chemotactic receptor 1 (Homo sapiens)
assay summary: Release of beta-glucuronidase from human polymorphonuclear leukocytes(PMN)
Assay type: functional
quantity name: pEC50
Keep in mind that pEC50 stands for -log10 of concentration in molar terms.

Record summary for `H-YSFKDMQLGR-OH` : reported pEC50 = 3.28

Record summary for `H-ISHKDMQLGR-OH` : reported pEC50 = 7.91

Record summary for `H-YSFKGLLLGR-OH` : reported pEC50 = 4.56

Record summary for `H-YSFKDMQPGR-OH` : reported pEC50 = 4.38

Record summary for `H-YSFKGMLLGR-OH` : reported pEC50 = 4.15
